meta.source: paper PMC11785791

molecular target: human CaSR R66A mutant (Homo sapiens, UniProt P41180, R66A); construct: (N); expressed in transfected cells; host or cells: PEAKrapid cells (ATCC), pcDNA 3.1, transient transfection; experiment: Calcium mobilization assay, CaSR R66A mutant; format: cell-based; conditions: R66A mutant, mean ± s.e.m., n = 3
Sequence (P41180 20-1078 R66A): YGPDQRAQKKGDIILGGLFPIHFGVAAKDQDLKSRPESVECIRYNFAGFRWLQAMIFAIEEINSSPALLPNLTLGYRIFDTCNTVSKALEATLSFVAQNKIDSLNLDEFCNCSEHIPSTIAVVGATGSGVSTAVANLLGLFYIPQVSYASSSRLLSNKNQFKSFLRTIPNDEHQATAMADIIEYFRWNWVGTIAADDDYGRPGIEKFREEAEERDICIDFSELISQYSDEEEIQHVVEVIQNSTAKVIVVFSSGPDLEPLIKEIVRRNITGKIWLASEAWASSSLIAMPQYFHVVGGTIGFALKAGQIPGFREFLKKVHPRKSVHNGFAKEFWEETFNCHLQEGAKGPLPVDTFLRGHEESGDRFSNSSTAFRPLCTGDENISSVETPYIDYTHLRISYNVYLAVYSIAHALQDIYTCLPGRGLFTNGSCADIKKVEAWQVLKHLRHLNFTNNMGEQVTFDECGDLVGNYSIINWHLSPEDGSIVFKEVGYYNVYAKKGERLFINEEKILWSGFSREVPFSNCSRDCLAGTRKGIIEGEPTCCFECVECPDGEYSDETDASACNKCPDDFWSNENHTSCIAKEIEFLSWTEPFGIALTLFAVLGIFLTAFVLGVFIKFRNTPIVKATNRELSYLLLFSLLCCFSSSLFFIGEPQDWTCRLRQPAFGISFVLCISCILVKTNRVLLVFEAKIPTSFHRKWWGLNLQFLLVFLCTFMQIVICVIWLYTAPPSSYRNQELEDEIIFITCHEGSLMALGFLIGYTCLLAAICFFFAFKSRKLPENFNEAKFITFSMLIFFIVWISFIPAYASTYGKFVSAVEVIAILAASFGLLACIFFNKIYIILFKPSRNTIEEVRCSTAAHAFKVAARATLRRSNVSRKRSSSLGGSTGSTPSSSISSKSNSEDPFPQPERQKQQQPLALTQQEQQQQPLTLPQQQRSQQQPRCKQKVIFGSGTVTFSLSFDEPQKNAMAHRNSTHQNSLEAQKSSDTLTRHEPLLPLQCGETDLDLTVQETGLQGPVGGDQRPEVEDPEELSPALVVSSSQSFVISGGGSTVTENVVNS

# compound_structure_string, target_desc, EC50, mM
data = [
    ("[Ca+2].[Cl-].[Cl-]", "human CaSR R66A mutant (Homo sapiens, UniProt P41180, R66A)", 3.87),
]

---

target: human CaSR R66A mutant (Homo sapiens, UniProt P41180, R66A); construct: (N); expressed in transfected cells; host or cells: PEAKrapid cells (ATCC), pcDNA 3.1, transient transfection; assay: Calcium mobilization assay, CaSR R66A mutant; type: cell-based; conditions: R66A mutant, mean ± s.e.m., n = 3; ND not detected
pEC50: −log10 of the molar value. *1 amine or outer side, *2 acyl side, *3 side chain or, on linkers, in order; H or OH if unused. Where a SMILES comes first, the peptide text is derived from it. γGlu = O=C(O)[CH](CCC(=O)[*:2])N[*:1]
measurement_label: pEC50

# molecule, reading
records = [
    ("CC(C)C(NC(=O)CCC(N)C(=O)O)C(=O)NCC(=O)O (stereo not drawn) [γ-EVG, γ-glutamyl-valyl-glycine] (γGlu-Val-Gly-OH; configuration not given here)", 4.72),
]

---

molecular target: human CaSR N102F mutant (Homo sapiens, UniProt P41180, N102F); construct: (N); expressed in transfected cells; host or cells: PEAKrapid cells (ATCC), pcDNA 3.1, transient transfection; experiment: Calcium mobilization assay, CaSR N102F mutant; type: cell-based; details: N102F mutant, mean ± s.e.m., n = 3; read-out: EC50
Sequence (P41180 20-1078 N102F): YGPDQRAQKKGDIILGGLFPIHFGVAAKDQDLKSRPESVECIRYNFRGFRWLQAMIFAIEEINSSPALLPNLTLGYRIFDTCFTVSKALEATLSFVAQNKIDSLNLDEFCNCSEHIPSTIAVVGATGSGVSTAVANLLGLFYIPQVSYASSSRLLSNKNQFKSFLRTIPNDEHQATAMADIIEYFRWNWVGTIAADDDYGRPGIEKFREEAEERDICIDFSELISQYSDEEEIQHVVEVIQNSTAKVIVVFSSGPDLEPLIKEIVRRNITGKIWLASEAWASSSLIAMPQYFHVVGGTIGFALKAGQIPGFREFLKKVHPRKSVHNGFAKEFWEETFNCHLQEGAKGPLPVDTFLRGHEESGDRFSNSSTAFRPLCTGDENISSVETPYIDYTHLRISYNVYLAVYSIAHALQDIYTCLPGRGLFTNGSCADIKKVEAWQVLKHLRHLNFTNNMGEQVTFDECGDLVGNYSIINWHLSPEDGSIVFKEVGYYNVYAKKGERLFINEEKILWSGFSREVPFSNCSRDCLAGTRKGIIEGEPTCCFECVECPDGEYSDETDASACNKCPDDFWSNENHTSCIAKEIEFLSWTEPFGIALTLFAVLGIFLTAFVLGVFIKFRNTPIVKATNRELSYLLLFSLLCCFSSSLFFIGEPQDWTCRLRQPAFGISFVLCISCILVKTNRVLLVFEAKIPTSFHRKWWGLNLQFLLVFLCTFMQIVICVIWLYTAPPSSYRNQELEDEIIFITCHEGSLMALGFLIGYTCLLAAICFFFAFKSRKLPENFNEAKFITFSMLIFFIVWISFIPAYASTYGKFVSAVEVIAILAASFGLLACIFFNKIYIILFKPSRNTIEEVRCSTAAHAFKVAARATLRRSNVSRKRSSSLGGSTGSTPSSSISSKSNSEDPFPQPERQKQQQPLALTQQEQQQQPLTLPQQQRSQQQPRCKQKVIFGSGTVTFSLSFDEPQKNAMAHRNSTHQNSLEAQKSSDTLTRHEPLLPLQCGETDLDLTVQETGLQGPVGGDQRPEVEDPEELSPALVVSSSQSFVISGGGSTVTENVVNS
Examples of molecules with documented EC50 follow.
measurement_label: EC50 (mM)

# compound_structure_string, units_text, reading
rows = [
    ("[Ca+2].[Cl-].[Cl-]", "mM", 2.75),
    ("N[C@@H](Cc1ccc(O)cc1)C(=O)O", "mM", 2.16),
    ("CC(C)[C@H](NC(=O)CC[C@H](N)C(=O)O)C(=O)O", "mM", 0.00448),
]

---

target: human CaSR N102F mutant (Homo sapiens, UniProt P41180, N102F); construct: (N); expressed in transfected cells; host or cells: PEAKrapid cells (ATCC), pcDNA 3.1, transient transfection; assay: Calcium mobilization assay, CaSR N102F mutant; format: cell-based; details: N102F mutant; read-out: EC50 of the N102F mutant
*1 amine or outer side, *2 acyl side, *3 side chain or, on linkers, in order; H or OH if unused. Where a SMILES comes first, the peptide text is derived from it. γGlu = O=C(O)[CH](CCC(=O)[*:2])N[*:1]

# compound, units_text, EC50
records = [
    ("CC(C)C(NC(=O)CCC(N)C(=O)O)C(=O)NCC(=O)O (stereo not drawn) [γ-EVG, γ-glutamyl-valyl-glycine] (γGlu-Val-Gly-OH; configuration not given here)", "µM", 6.52),
]

---

biological target: human CaSR E297A mutant (Homo sapiens, UniProt P41180, E297A); construct: (N); experiment: Calcium mobilization assay, CaSR E297A mutant; details: mean ± s.e.m., n = 3
Sequence (P41180 20-1078 E297A): as the sequence (P41180 20-1078 N102F) above, with F83N, E278A counted along it

# compound_structure_string, target_desc, EC50 / mM
records = [
    ("[Ca+2].[Cl-].[Cl-]", "human CaSR E297A mutant (Homo sapiens, UniProt P41180, E297A)", 6.58),
]
